- Target Or Test System: MMP-1 (Homo sapiens)
- Construct: made in house; host or cells: MMP-1-transfected HT-1080 cells (spent media)
- Sequence (P03956 100-469, species assumed): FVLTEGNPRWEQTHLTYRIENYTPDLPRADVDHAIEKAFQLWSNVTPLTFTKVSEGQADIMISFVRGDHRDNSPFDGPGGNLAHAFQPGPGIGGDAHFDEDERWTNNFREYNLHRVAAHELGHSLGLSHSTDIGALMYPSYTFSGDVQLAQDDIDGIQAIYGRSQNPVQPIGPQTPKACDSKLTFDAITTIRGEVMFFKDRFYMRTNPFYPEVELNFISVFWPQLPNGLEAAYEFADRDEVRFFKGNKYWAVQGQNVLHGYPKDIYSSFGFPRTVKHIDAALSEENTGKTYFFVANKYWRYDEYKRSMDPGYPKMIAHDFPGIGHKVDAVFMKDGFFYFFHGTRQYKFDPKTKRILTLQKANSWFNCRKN
- Measurement Protocol: MMP-1 inhibition (in vitro Ki)
- Format: biochemical
- Setup Conditions: Table 8; read-out: MMP-1 Ki
pKi: −log10 of the molar value. Counter-ions that a name gives are not always drawn.
Quantity Measured: pKi

> print(dat)
                                   compound  target.or.test.system  quantity.measured  number
1  O=C(NO)C1(S(=O)(=O)N2CCC(CCCCCCC(F)(F)C(F)(F)F)CC2)CCOCC1   MMP-1 (Homo sapiens)                pKi    5.29
2  O=C(NO)C1(S(=O)(=O)N2CCC(c3ccc(CCC(F)(F)C(F)(F)F)cn3)CC2)CCCCC1 [Example A56, Hydrochloride]   MMP-1 (Homo sapiens)                pKi    5.61

[I] O=C(NO)C1(S(=O)(=O)N2CCC(CCCCc3nc(-c4ccc(OC(F)(F)F)cc4)no3)CC2)CCOCC1
[II] O=C(NO)C1(S(=O)(=O)N2CCC(c3ccc(OCC(F)(F)C(F)F)cn3)CC2)CCOCC1 [Example A59, Hydrochloride]
Query string: Returns: the argument ( I or II ) having the larger pKi. Return value: the label identifying the chosen record.
Result string: II

----------
- Target Or Test System: MMP-2 (Homo sapiens, UniProt P08253)
- Construct: made in house; host or cells: MMP-2-transfected p2AHT2 cells
- Sequence (P08253 110-660): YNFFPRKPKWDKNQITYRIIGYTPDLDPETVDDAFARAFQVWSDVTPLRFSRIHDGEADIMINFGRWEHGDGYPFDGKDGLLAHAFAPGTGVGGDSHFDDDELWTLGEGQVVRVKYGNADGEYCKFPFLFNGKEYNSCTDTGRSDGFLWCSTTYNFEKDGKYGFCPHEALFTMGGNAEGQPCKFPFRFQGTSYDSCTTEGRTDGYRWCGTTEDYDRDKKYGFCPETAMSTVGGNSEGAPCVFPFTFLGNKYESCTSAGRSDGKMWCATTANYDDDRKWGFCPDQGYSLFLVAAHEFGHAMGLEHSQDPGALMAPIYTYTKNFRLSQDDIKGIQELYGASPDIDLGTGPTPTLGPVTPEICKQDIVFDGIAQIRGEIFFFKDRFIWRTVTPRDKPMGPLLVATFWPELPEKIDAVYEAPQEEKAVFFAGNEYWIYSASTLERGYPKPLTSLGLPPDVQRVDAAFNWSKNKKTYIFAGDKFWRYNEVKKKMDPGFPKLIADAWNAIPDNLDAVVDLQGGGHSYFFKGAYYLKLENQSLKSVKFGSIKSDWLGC
- Measurement Protocol: MMP-2 inhibition (in vitro Ki)
- Format: biochemical
- Setup Conditions: Table 9; read-out: MMP-2 Ki (IC-50)
Quantity Measured: Ki (nM)

Past entries and their recorded results:
> print(dat)
                      smiles.representation  number
1  CCCN(C(=O)CCCC1CCN(S(=O)(=O)C2(C(=O)NO)CCOCC2)CC1)c1ccccc1    26.3
2  O=C(NO)C1(S(=O)(=O)N2CCC(c3ccc(CCC(F)(F)C(F)(F)F)cn3)CC2)CCN(c2ncccn2)CC1   0.881
3  CN(C(=O)CCCC1CCN(S(=O)(=O)C2(C(=O)NO)CCOCC2)CC1)C1CCCCC1     958
4  O=C(NO)C1(S(=O)(=O)N2CCC(c3ccc(CCc4ccccc4)cn3)CC2)CCOCC1    5.27
5  Cc1ccc(N2CCC(C(=O)NO)(S(=O)(=O)N3CCC(c4ccc(CCC(F)(F)C(F)(F)F)cn4)CC3)CC2)cn1     1.2

[a] O=C(NO)C1(S(=O)(=O)N2CCN(c3ccc(CCC(F)(F)F)cn3)CC2)CCOCC1
[b] CC(C)COc1cnc(C2CCN(S(=O)(=O)C3(C(=O)NO)CCOCC3)CC2)cn1
[c] O=C(NO)C1(S(=O)(=O)N2CCC(c3cnc(OCC(F)(F)C(F)F)cn3)CC2)CCOCC1
[d] O=C(NCCCCC1CCN(S(=O)(=O)C2(C(=O)NO)CCOCC2)CC1)C1(c2ccccc2)CC1
[e] O=C(NO)C1(S(=O)(=O)N2CCC(CCCc3nc(-c4ccc(OC(F)(F)F)cc4)no3)CC2)CCOCC1
Query string: Highest Ki first, then in falling order down to the smallest. API: response body holds the labels in the requested order.
Result string: e, d, b, c, a
